# Tested on: 786-0 renal
# assay-procedure: NCI tumour cell line growth inhibition, 48 h
measured-parameter: TGI

Use these answered entries as a reference point.
# compound, measured-parameter, recorded-value
measured = [
    ("O=C(COc1ccc(OCC(=O)NNC2=NC(c3cc(F)c(Cl)cc3Cl)CS2)c(Cl)c1)NNC1=NC(c2cc(F)c(Cl)cc2Cl)CS1 (configuration not stated)", "TGI", "> 100 µM"),
    ("COC(=O)C(CC(C)=O)CS(=O)(=O)CC(=O)C(=O)Nc1cccc([N+](=O)[O-])c1 (configuration not stated)", "TGI", "> 100 µM"),
    ("O=C(O)C1C2C=CC(C2)C1C(=O)O (configuration not stated)", "TGI", "> 100 µM"),
    ("COc1cc(/C=C/c2nc(N)nnc2C)cc(OC)c1OC", "TGI", "> 60.6 µM"),
    ("CN(C)c1ccc(-c2c(C#N)c(O)n(NS(=O)(=O)c3ccccc3)c(=O)c2C#N)cc1", "TGI", "> 100 µM"),
    ("Cc1cc(=O)[nH]c2cc(NC(=O)C(CCCN=C(N)N)NC(=O)OCc3ccccc3)ccc12 (configuration not stated)", "TGI", "> 100 µM"),
]

Attention now shifts to the item below.
Task item: May I ask what TGI has been recorded for O=C(OC[C@H]1C[C@H]2C(=O)CCC[C@H]2O1)c1ccccc1 ?
Reply: > 100 µM

----------
# Tested on: OVCAR-5 ovarian
# assay-procedure: NCI tumour cell line growth inhibition, 48 h
GI50 values for the compounds below.

# compound, GI50
rows = [
    ("COc1cc(/C=C2\\Oc3cc(OCCCN4CCCC4)ccc3C2=O)cc(OC)c1", "12500 nM"),
]

Task item: May I ask what GI50 has been recorded for Cc1[nH]c(C(=O)Nc2ccccc2OC2CCNCC2)c(Cl)c1Cl ?
Reply: 1280 nM

----------
# Tested on: HOP-62 NSCLC
# assay-procedure: NCI tumour cell line growth inhibition, 48 h
measured-parameter: TGI

Use these answered entries as a reference point.
# molecule, measured-parameter, recorded-value
measured = [
    ("CCOC(=O)/C(N=Nc1ccc(-n2c(C)nc3ccc(Br)cc3c2=O)cc1)=C(/C)O", "TGI", "> 100 µM"),
    ("N#Cc1cc([N+](=O)[O-])ccc1NC(=O)C(F)(F)F", "TGI", "> 100 µM"),
]

Attention now shifts to the item below.
Task item: May I ask what TGI has been recorded for COC(=O)/C=C(/C(=O)OC)c1cc2ccc3c([nH]c4ccccc43)c(C)c-2c1 ?
Reply: 37.5 µM

----------
# Tested on: HCT-116 colon
# assay-procedure: NCI tumour cell line growth inhibition, 48 h
measured-parameter: TGI

Use these answered entries as a reference point.
# molecule, TGI
measured = [
    ("Cc1ccc2c(c1)C1C(CO2)C(c2ccccc2)=NN1c1ccccc1 (centres undefined)", "> 100 µM"),
    ("Fc1ccc(-c2nn3c(-c4cc(C(F)(F)F)cc(C(F)(F)F)c4)nnc3s2)cc1", "> 50 µM"),
    ("Cc1cccc2nc3cccc(C(=O)NCCNCCNCCNC(=O)c4cccc5nc6cccc(C)c6nc45)c3nc12", "> 35.8 µM"),
]

Task item: May I ask what TGI has been recorded for COc1cc(C(=O)C2C(=O)c3ccccc3C2C2(O)c3ccccc3CC2C(O)c2cc(OC)c(OC)c(OC)c2)cc(OC)c1OC (centres undefined) ?
Reply: > 100 µM

----------
TGI values for the molecules below.
# System: UACC-257 melanoma
# assay-procedure: NCI tumour cell line growth inhibition, 48 h

Use these answered entries as a reference point.
# molecule, TGI
records = [
    ("Cc1c(/C=N/NC(=S)Nc2ccccc2)c(=O)n(-c2ccccc2)n1C", "> 100 µM"),
    ("Clc1nc(Cl)c2c3c(sc2n1)CCCC3", "> 100 µM"),
]

Attention now shifts to the item below.
Task item: May I ask what TGI has been recorded for COC(=O)C(C(=O)C(=O)Nc1ccccc1C#N)c1nc2ccc([N+](=O)[O-])cc2[nH]c1=O (stereo not drawn) ?
Reply: > 100 µM

----------
# Tested on: HOP-62 NSCLC
# assay-procedure: NCI tumour cell line growth inhibition, 48 h
measured-parameter: GI50

# compound, recorded-value
data = [
    ("C=C1CCC2C3(C)COC(c4c(OC)cccc4OC)OC3CCC2(C)C1C/C=C1/C(=O)OCC1O (stereo not given)", "14.8 µM"),
]

Task item: Hello, I am looking for reported GI50 with HOP-62 NSCLC for COc1cc2nc(-c3ccc(Cl)cc3)cc(OCCCN3CCCC3)c2cc1OC . Could you help?
Reply: 1.38 µM

Task item: Would you mind doing CC(C)(CCN=C(N)Nc1ccccn1)c1ccc(C(F)(F)F)cc1 as well?
Reply: 15.7 µM

----------
# Test system: HT29 colon
# assay-procedure: NCI tumour cell line growth inhibition, 48 h
measured-parameter: TGI

# compound, measured-parameter, recorded-value
records = [
    ("COC(=O)N/N=C(\\C(=O)Nc1cccc([N+](=O)[O-])c1)c1nc2ccc([N+](=O)[O-])cc2[nH]c1=O", "TGI", "> 100 µM"),
    ("Cc1cc(=O)[nH]c2cc(NC(=O)C(CCCN=C(N)N)NC(=O)OCc3ccccc3)ccc12 (stereo not given)", "TGI", "> 100 µM"),
    ("CCOC(=O)CSc1nnc(CSc2nc(-c3ccccc3)c(-c3ccccc3)[nH]2)n1-c1ccccc1", "TGI", "> 100 µM"),
    ("Cc1cccc2nc3cccc(C(=O)NCCNCCNCCNC(=O)c4cccc5nc6cccc(C)c6nc45)c3nc12", "TGI", "0.254 µM"),
]

Attention now shifts to the item below.
Task item: May I ask what TGI has been recorded for CC(C)OP(=O)(OC(C)C)c1ccc2c(c1)OCCOCCOCCOCCO2 ?
Reply: > 100 µM

----------
TGI values for the compounds below.
# System: M14 melanoma
# assay-procedure: NCI tumour cell line growth inhibition, 48 h

# compound, TGI
data = [
    ("O=C(CC1(O)C(=O)Nc2ccccc21)c1ccc(F)cc1 (stereo not given)", "> 100 µM"),
]

Task item: May I ask what TGI has been recorded for COC(=O)N/N=C(\C(=O)Nc1cccc([N+](=O)[O-])c1)c1nc2ccc([N+](=O)[O-])cc2[nH]c1=O ?
Reply: > 100 µM

Task item: Would you mind doing CC(=O)O[C@H]1C=CC(=O)C(C)CC1C (stereo not given in full) as well?
Reply: > 100 µM

Task item: Would you mind doing Cc1[nH]c(C(=O)Nc2ccccc2OC2CCNCC2)c(Cl)c1Cl as well?
Reply: 1.9 µM

Task item: Would you mind doing O=C(OC[C@H]1C[C@H]2C(=O)CCC[C@H]2O1)c1ccccc1 as well?
Reply: > 100 µM

Task item: Would you mind doing O=C(Nc1ccc(Sc2ccc(N=Nc3c(O)c(S(=O)(=O)O)cc4cc(S(=O)(=O)O)ccc34)cc2)cc1)c1ccc(N=Nc2c(O)ccc3c(S(=O)(=O)O)cc(S(=O)(=O)O)cc23)cc1 as well?
Reply: 66.2 µM

----------
# Test system: PC-3 prostate
# assay-procedure: NCI tumour cell line growth inhibition, 48 h
measured-parameter: TGI

Use these answered entries as a reference point.
# compound, recorded-value
measured = [
    ("COc1c2c(cc3c1OCO3)C13C=CC(OC)CC1N(CC3)C2 (centres undefined)", "> 100 µM"),
    ("Nn1c(CCCCCCCCc2nnc(COc3ccccc3)n2N)nnc1COc1ccccc1", "> 100 µM"),
    ("O=[N+]([O-])c1ccc(Sc2nc(Cl)nc(NC3CCCC3)n2)cc1", "> 10 µM"),
    ("NS(=O)(=O)c1ccc(NCc2cnc3ccccc3n2)cc1", "> 100 µM"),
    ("COc1ccc(CNC(C)C(=O)O)cc1 (centres undefined)", "> 100 µM"),
]

Task item: May I ask what TGI has been recorded for Clc1cc2c(nn1)Nc1ccccc1S2 ?
Reply: > 100 µM

Task item: Would you mind doing CCC(CCC(C)C1CCC2C3CC=C4CC(OC5OC(CO)C(O)C(O)C5O)CCC4(C)C3CCC12C)C(C)C (centres undefined) as well?
Reply: > 100 µM

Task item: Would you mind doing COc1ccc2c(Cc3c4ccccc4cc4ccccc34)cncc2c1O as well?
Reply: > 59.9 µM

Task item: Would you mind doing CC1=C(C(=O)Nc2ccc3[nH]ncc3c2)C(c2ccc(Cl)c(Cl)c2)CC(=O)N1 (centres undefined) as well?
Reply: > 25 µM

Task item: Would you mind doing Clc1ccc(CNc2nc(Cl)c3[nH]cnc3n2)cc1Cl as well?
Reply: > 100 µM

Task item: Would you mind doing CO[C@]12C=C/C(=C(/C(=O)OCc3cccnc3)C(=O)CCCCCCCC[C@@]3(OC)C=C/C(=C(/C(=O)OCc4cccnc4)C(=O)CCCCCCCC1)O3)O2 as well?
Reply: > 50 µM
